Recorded values, source patent US10508120B2.

As shown below, each of these molecules has a reported IC50 value.
# assayed_system: Tyk2/JAK2 (heterodimeric complex) (Homo sapiens (Human))
# Sequence (P29597 whole entry, other chains not shown): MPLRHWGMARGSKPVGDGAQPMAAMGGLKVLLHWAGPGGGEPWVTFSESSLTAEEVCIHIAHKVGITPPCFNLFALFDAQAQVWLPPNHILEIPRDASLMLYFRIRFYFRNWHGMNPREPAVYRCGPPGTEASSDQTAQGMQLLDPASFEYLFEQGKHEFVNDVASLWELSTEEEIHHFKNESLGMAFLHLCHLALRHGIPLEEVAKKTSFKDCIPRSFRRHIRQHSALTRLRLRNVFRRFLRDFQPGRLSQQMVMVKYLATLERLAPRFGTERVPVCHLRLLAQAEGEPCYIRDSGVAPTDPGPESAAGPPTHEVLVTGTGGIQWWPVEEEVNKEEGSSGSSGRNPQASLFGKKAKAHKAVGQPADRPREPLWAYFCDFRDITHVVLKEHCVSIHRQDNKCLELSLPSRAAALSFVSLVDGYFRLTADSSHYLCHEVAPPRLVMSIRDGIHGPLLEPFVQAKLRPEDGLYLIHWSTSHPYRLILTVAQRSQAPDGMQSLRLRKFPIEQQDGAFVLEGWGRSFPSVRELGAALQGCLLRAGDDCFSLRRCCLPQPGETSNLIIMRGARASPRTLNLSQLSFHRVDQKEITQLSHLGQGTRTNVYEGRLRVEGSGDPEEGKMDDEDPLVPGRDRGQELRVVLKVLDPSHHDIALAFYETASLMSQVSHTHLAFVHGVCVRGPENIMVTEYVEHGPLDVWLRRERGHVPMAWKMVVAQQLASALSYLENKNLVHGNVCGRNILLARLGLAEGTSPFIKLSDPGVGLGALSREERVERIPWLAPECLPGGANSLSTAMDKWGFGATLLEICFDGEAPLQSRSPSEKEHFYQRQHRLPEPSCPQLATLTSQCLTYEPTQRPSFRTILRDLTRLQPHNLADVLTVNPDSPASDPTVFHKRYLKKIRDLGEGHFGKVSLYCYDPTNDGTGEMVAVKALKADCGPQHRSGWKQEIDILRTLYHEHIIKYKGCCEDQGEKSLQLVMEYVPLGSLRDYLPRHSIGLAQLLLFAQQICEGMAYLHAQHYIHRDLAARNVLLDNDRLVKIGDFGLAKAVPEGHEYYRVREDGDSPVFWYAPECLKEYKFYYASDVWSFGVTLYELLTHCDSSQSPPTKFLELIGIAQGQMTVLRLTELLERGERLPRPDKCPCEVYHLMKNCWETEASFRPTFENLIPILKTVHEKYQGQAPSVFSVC
# test_protocol: IL-12 Induced pSTAT4 in Human PBMC
# cond: 1.7 ng/mL IL-12
# Text: The IL-12 Induced pSTAT4 assay evaluates the inhibition of IL-12 induced STAT4 phophorylation mediated by Tyk2/JAK2 (heterodimeric complex).

{"smiles_data": "CNc1cc(Nc2cc(C)cnc2OCCOC)nc2c(C(=O)NC3CC3)cnn12", "IC50": "0.1 to 0.5 µM"}
{"smiles_data": "CNc1cc(Nc2cccn(C3CCN(CCF)CC3)c2=O)nc2c(C(=O)NCC(C)(C)CO)cnn12", "IC50": "0.1 to 0.5 µM"}
{"smiles_data": "CNc1cc(Nc2cc(Cl)cn([C@@H]3CCCOC3)c2=O)nc2c(C(=O)NC3CC3)cnn12", "IC50": "< 0.1 µM"}
{"smiles_data": "CNc1cc(Nc2cccn(-c3ccc(OC)cn3)c2=O)nc2c(C(=O)NC3CCC3)cnn12", "IC50": "< 0.1 µM"}
